Quick list: pIC50 per entry.
SYSTEM_NAME: Peroxisome proliferator-activated receptor gamma (Homo sapiens, UniProt P37231)
Sequence (P37231 whole entry, the tested form may be a part): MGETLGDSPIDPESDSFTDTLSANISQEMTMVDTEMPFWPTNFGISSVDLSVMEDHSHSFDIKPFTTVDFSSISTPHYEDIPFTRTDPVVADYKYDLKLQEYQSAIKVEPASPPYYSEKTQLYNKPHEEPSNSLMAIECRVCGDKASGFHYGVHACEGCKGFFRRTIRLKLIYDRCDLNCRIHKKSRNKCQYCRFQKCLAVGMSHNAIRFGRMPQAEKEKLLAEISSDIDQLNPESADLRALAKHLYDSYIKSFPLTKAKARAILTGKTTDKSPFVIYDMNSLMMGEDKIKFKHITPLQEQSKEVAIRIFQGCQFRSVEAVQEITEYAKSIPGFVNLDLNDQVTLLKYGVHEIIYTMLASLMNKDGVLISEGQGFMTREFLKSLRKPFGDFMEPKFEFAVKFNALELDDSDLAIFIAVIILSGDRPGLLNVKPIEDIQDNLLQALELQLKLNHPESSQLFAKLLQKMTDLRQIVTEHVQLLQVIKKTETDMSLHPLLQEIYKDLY
TEST_DESCRIPTION: Antagonist activity at PPAR gamma LBD (203 to 476 residues) (unknown origin) expressed in HEK293T cells co-transfected with pCMV-GAL4-PPARgamma-LBD-SV40-Renilla-luciferase assessed as reduction of rosiglitazone induced PPAR-gamma activation incubated for 24 hrs by dural-luciferase reporter assay
pIC50: −log10 of the molar value.
READOUT_TYPE: pIC50

structure_notation=CC(=O)OC[C@@]12[C@@H](OC(C)=O)C[C@@H](C)[C@](C)(C[C@H](OC(C)=O)C3=CC(=O)OC3)[C@H]1CCC[C@]21CO1 system_name="Peroxisome proliferator-activated receptor gamma (Homo sapiens, UniProt P37231)" result_comparator== numeric_value=4.88
structure_notation=C/C=C(\C)C(=O)OC[C@@]12[C@@H](OC(C)=O)C[C@@H](C)[C@](C)(CCC3=CC(=O)OC3)[C@H]1CCC[C@]21CO1 system_name="Peroxisome proliferator-activated receptor gamma (Homo sapiens, UniProt P37231)" result_comparator== numeric_value=5.08
structure_notation=CC(=O)O[C@H]1C[C@@H](C)[C@](C)(CCC2=CC(=O)OC2)[C@H]2CCCC(=O)[C@]12CO system_name="Peroxisome proliferator-activated receptor gamma (Homo sapiens, UniProt P37231)" result_comparator=< numeric_value=4.70
structure_notation=CC(=O)OC[C@@]12[C@@H](OC(C)=O)C[C@@H](C)[C@](C)(C[C@H](OC(C)=O)C3=CC(=O)OC3)[C@H]1[C@H](O)CC[C@]21CO1 system_name="Peroxisome proliferator-activated receptor gamma (Homo sapiens, UniProt P37231)" result_comparator== numeric_value=4.89
structure_notation=C/C=C(\C)C(=O)OC[C@@]12[C@H](CCC[C@]1(O)CCl)[C@@](C)(CCC1=CC(=O)OC1)[C@H](C)C[C@@H]2O system_name="Peroxisome proliferator-activated receptor gamma (Homo sapiens, UniProt P37231)" result_comparator== numeric_value=4.98
structure_notation=C/C=C(\C)C(=O)O[C@@H]1CC[C@](O)(CCl)[C@]2(COC(C)=O)[C@@H](OC(C)=O)C[C@@H](C)[C@](C)(C/C=C(/C=O)CC(=O)OC)[C@@H]12 system_name="Peroxisome proliferator-activated receptor gamma (Homo sapiens, UniProt P37231)" result_comparator=< numeric_value=4.70

From: ChEMBL document CHEMBL5579883
